Molecular target: Protein kinase 7 (PK7), Plasmodium falciparum 3D7 (PF3D7_0213400) (UniProt Q7YTF7)
Sequence (Q7YTF7 1-343): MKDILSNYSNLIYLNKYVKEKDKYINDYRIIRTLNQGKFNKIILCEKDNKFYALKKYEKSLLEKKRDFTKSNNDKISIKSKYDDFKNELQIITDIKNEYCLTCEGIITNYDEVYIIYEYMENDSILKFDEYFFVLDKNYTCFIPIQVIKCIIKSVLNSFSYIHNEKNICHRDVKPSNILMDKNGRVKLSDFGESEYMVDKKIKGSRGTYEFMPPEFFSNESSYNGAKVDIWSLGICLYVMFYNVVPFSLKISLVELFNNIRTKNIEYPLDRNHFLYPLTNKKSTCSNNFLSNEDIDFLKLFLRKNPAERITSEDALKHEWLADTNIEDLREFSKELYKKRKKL
Assay: inhibition of Plasmodium PK7 catalytic activity – biochemical, TCAMS antimalarial set, Kinase-Glo luminescence (AID 1159587)
Settings: recombinant PfPK7, Kinase-Glo ATP depletion luminescence
Calls of active or inactive are those of the source. No rule for the calls is given here.
Readout: outcome

compound=O=C(Nc1ccc(-c2nc3ccccc3[nH]2)cc1)c1cccc(S(=O)(=O)N2CCOCC2)c1 value_observed=inactive
compound="CCOC(=O)c1sc(C(C)Nc2ccccc2)nc1-c1ccccc1 (centres undefined)" value_observed=inactive
compound="CC(CN1CCN(C)CC1)C(=O)Nc1ccc(-c2csc(-c3nc4ccccc4[nH]3)c2)cc1 (centres undefined)" value_observed=inactive
compound=Fc1ccc2nc(-c3cccc(-c4ccc(CN5CCN(c6ccncc6)CC5)cc4)c3)[nH]c2c1 value_observed=inactive
compound=O=C(/C=C/c1ccc(F)c(Br)c1)NCCCCCN1CCC(c2c[nH]c3ccccc23)CC1 value_observed=inactive
compound=CCNc1cc(C(=O)N[C@@H](Cc2ccccc2)[C@H](O)CNC2CCC(C)(C)CC2)cc(N2CCCCS2(=O)=O)c1 value_observed=inactive
compound=CN1CCC(N2CCN(Cc3cccc(-c4ccc(-c5nc6ccc(C(F)(F)F)cc6[nH]5)cc4)c3)CC2)CC1 value_observed=inactive
compound=CN1CCN(c2ccc(-c3cc(-c4cc(F)c(F)c(F)c4)cnc3N)cc2)CC1 value_observed=inactive
compound="CC1CN(Cc2ccc(-c3cccc(-c4nc5ccc(F)cc5[nH]4)c3)cc2)CC(C)O1 (centres undefined)" value_observed=inactive

---

Target: L-lactate dehydrogenase (Plasmodium falciparum (isolate CDC / Honduras)) (UniProt Q27743)
Sequence (Q27743 whole entry, looked up): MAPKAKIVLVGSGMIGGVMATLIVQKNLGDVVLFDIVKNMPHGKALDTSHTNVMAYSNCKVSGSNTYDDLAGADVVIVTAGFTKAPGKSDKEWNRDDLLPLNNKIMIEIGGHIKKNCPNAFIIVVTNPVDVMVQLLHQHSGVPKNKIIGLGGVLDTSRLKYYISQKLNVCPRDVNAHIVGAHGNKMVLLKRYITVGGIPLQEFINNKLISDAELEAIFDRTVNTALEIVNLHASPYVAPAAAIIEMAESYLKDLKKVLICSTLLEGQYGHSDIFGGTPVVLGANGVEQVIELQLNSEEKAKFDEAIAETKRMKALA
Assay: PfLDH activity inhibition – cell lysate, 3D7 strain, counter-screen for P. falciparum growth inhibition project (AID 2304);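 also: 0% = vehicle and 100% = reference inhibitor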
Conditions: P. falciparum 3D7 crude extract, LDH APAD/NBT absorbance; at 2 µM; stronger effect = higher value
Readout: inhibition (%)

molecule=N#Cc1ccc(C2CCN(CC[C@H](N)Cc3ccc(Cl)s3)CC2)cc1 experimental_target="L-lactate dehydrogenase (Plasmodium falciparum (isolate CDC / Honduras)) (UniProt Q27743)" quantity_unit=% value_observed=6
molecule=c1ccc(CCNc2nc(NCC(c3ccccc3)c3ccccc3)c3[nH]cnc3n2)cc1 experimental_target="L-lactate dehydrogenase (Plasmodium falciparum (isolate CDC / Honduras)) (UniProt Q27743)" quantity_unit=% value_observed=-1
molecule=COc1ccc(C2=CCN(c3ccc(Cl)c(Cl)c3)C2=O)cc1OCCN1CCCCC1 experimental_target="L-lactate dehydrogenase (Plasmodium falciparum (isolate CDC / Honduras)) (UniProt Q27743)" quantity_unit=% value_observed=-2
molecule=CC(C)CN1CCN(CCNc2c3ccccc3nc3ccccc23)CC1 experimental_target="L-lactate dehydrogenase (Plasmodium falciparum (isolate CDC / Honduras)) (UniProt Q27743)" quantity_unit=% value_observed=0
molecule="CCOC(=O)C1=C(C)N=c2sc(=Cc3cc(Cl)ccc3O)c(=O)n2C1c1ccc(OC)cc1 (stereo not drawn)" experimental_target="L-lactate dehydrogenase (Plasmodium falciparum (isolate CDC / Honduras)) (UniProt Q27743)" quantity_unit=% value_observed=-3
molecule="CCC(=O)NC(c1ccco1)c1cc(Cl)c2cccnc2c1O (stereo not drawn)" experimental_target="L-lactate dehydrogenase (Plasmodium falciparum (isolate CDC / Honduras)) (UniProt Q27743)" quantity_unit=% value_observed=-5
molecule=CNC(=O)c1cc(NCCCNCc2ccc(Cl)c(C(F)(F)F)c2)nc2ccccc12 experimental_target="L-lactate dehydrogenase (Plasmodium falciparum (isolate CDC / Honduras)) (UniProt Q27743)" quantity_unit=% value_observed=-1
molecule="O=C(c1cccc(-c2ccc(-c3nc4ccc(F)cc4[nH]3)s2)c1)N1CCCCC1CN1CCC(O)C1 (stereo not drawn)" experimental_target="L-lactate dehydrogenase (Plasmodium falciparum (isolate CDC / Honduras)) (UniProt Q27743)" quantity_unit=% value_observed=2
molecule=COc1ccc(OC)c(NC(=O)CSc2nc(-c3ccccc3Cl)ns2)c1 experimental_target="L-lactate dehydrogenase (Plasmodium falciparum (isolate CDC / Honduras)) (UniProt Q27743)" quantity_unit=% value_observed=-1
molecule=CN(C(=O)/C=C/c1c(Cl)cccc1Cl)C1CCN(CCCCCNC(=O)/C=C/c2ccc(Cl)c(Cl)c2)CC1 experimental_target="L-lactate dehydrogenase (Plasmodium falciparum (isolate CDC / Honduras)) (UniProt Q27743)" quantity_unit=% value_observed=4
molecule=O=C(Nc1nc(-c2cc(F)ccc2F)cs1)c1cncc(Br)c1 experimental_target="L-lactate dehydrogenase (Plasmodium falciparum (isolate CDC / Honduras)) (UniProt Q27743)" quantity_unit=% value_observed=-4
molecule=CN1CCN(Cc2cccc(-c3ccc4c(Nc5ccc(F)cc5Cl)ccnc4c3)c2)CC1 experimental_target="L-lactate dehydrogenase (Plasmodium falciparum (isolate CDC / Honduras)) (UniProt Q27743)" quantity_unit=% value_observed=-1
molecule=CC1(C)N=C(N)NC(NOCC=Cc2ccccc2)=N1 experimental_target="L-lactate dehydrogenase (Plasmodium falciparum (isolate CDC / Honduras)) (UniProt Q27743)" quantity_unit=% value_observed=-2
molecule="COc1cccc(CNC(=O)NC2CCN(c3ccnc(Nc4ccc(F)cc4)n3)C2)c1 (stereo not drawn)" experimental_target="L-lactate dehydrogenase (Plasmodium falciparum (isolate CDC / Honduras)) (UniProt Q27743)" quantity_unit=% value_observed=-7
molecule=COc1cc2nc(N3CCN(C(=O)c4ccc(N(C(=O)OC(C)(C)C)C(=O)OC(C)(C)C)cc4)CC3)nc(N)c2cc1OC experimental_target="L-lactate dehydrogenase (Plasmodium falciparum (isolate CDC / Honduras)) (UniProt Q27743)" quantity_unit=% value_observed=1
molecule=Cc1ccc(Cc2cnc(NCCSCc3ccc(CN4CCOCC4)o3)[nH]c2=O)cn1 experimental_target="L-lactate dehydrogenase (Plasmodium falciparum (isolate CDC / Honduras)) (UniProt Q27743)" quantity_unit=% value_observed=-4
molecule="O=C(CC1NC(=O)c2ccccc21)Nc1ccc(-c2ccc(-c3nc4ccc(C(F)(F)F)cc4[nH]3)cc2)cc1 (stereo not drawn)" experimental_target="L-lactate dehydrogenase (Plasmodium falciparum (isolate CDC / Honduras)) (UniProt Q27743)" quantity_unit=% value_observed=-2
molecule=CCOC(=O)/C(=N\OC(C)(C)C(=O)NCc1ccc(O)c(O)c1)c1csc(NC(c2ccccc2)(c2ccccc2)c2ccccc2)n1 experimental_target="L-lactate dehydrogenase (Plasmodium falciparum (isolate CDC / Honduras)) (UniProt Q27743)" quantity_unit=% value_observed=-3
molecule=Cc1cc(Oc2cc(NC(=O)c3sc4ncn(Cc5ccccc5F)c(=O)c4c3C)cc([N+](=O)[O-])c2)ccc1Cl experimental_target="L-lactate dehydrogenase (Plasmodium falciparum (isolate CDC / Honduras)) (UniProt Q27743)" quantity_unit=% value_observed=3
molecule=COc1cc(C=NNc2nc(Nc3ccccc3)nc(Nc3ccccc3)n2)ccc1OCc1ccccc1[N+](=O)[O-] experimental_target="L-lactate dehydrogenase (Plasmodium falciparum (isolate CDC / Honduras)) (UniProt Q27743)" quantity_unit=% value_observed=3
molecule=CCc1ccc(CN(Cc2ccc(C)cc2)Cc2ccc(NC(C)=O)cc2)cc1 experimental_target="L-lactate dehydrogenase (Plasmodium falciparum (isolate CDC / Honduras)) (UniProt Q27743)" quantity_unit=% value_observed=-1
molecule=O=C(Nc1ccc(Cl)c(Cl)c1)Nc1ccc2nccc(N3CCN(Cc4ccccc4)CC3)c2c1 experimental_target="L-lactate dehydrogenase (Plasmodium falciparum (isolate CDC / Honduras)) (UniProt Q27743)" quantity_unit=% value_observed=1
molecule=COc1ccc2c(c1C1CCN(CCCCNC(=O)c3ccc(NC(=O)c4ccc(Cl)cc4)cc3)CC1)CCCC2 experimental_target="L-lactate dehydrogenase (Plasmodium falciparum (isolate CDC / Honduras)) (UniProt Q27743)" quantity_unit=% value_observed=-2
molecule="CC(C)c1cccc(C(NC(=O)[C@H]2Cc3ccccc3CN2C(=O)c2cccc(N3CCOCC3)c2)C2CCCC2)c1 (stereo partly drawn)" experimental_target="L-lactate dehydrogenase (Plasmodium falciparum (isolate CDC / Honduras)) (UniProt Q27743)" quantity_unit=% value_observed=1
molecule=O=C(NCCNc1ccnc(Nc2ccc(F)cc2)n1)Nc1ccccc1F experimental_target="L-lactate dehydrogenase (Plasmodium falciparum (isolate CDC / Honduras)) (UniProt Q27743)" quantity_unit=% value_observed=5
molecule=CCN1CCC(N(Cc2ccc(-c3ccc(C(F)(F)F)cc3)cc2)C(=O)Cn2nc(C)c(=O)cc2SCc2ccc(F)cc2)CC1 experimental_target="L-lactate dehydrogenase (Plasmodium falciparum (isolate CDC / Honduras)) (UniProt Q27743)" quantity_unit=% value_observed=-1
molecule=CN1CCC(C(=O)N(Cc2ccc(-c3ccc(CNCCc4ccc(S(C)(=O)=O)cc4)cn3)cc2)C2CCN(Cc3ccccc3)CC2)CC1 experimental_target="L-lactate dehydrogenase (Plasmodium falciparum (isolate CDC / Honduras)) (UniProt Q27743)" quantity_unit=% value_observed=-5
molecule=Nc1nc(Nc2cccc(Cl)c2)ncc1C(=O)NCc1ccncc1 experimental_target="L-lactate dehydrogenase (Plasmodium falciparum (isolate CDC / Honduras)) (UniProt Q27743)" quantity_unit=% value_observed=-5
molecule="C=CCN1Cc2c(O)cccc2C(c2ccc(O)c(O)c2)C1 (stereo not drawn)" experimental_target="L-lactate dehydrogenase (Plasmodium falciparum (isolate CDC / Honduras)) (UniProt Q27743)" quantity_unit=% value_observed=0
molecule=Nc1ncc(Cc2cc(Cl)c(N)c3ncccc23)c(N)n1 experimental_target="L-lactate dehydrogenase (Plasmodium falciparum (isolate CDC / Honduras)) (UniProt Q27743)" quantity_unit=% value_observed=1
molecule=O=C(NCCCc1ccccc1)c1ccc(O)c(-c2cc(Cl)cc(Cl)c2)c1 experimental_target="L-lactate dehydrogenase (Plasmodium falciparum (isolate CDC / Honduras)) (UniProt Q27743)" quantity_unit=% value_observed=-3
molecule=Cc1nc(N)nc(N)c1OCCCCCCOc1ccccc1 experimental_target="L-lactate dehydrogenase (Plasmodium falciparum (isolate CDC / Honduras)) (UniProt Q27743)" quantity_unit=% value_observed=-2
molecule=Cc1cc(NC(=O)c2cc(Br)ccc2Cl)n(-c2nc(C)c(C)c(=O)[nH]2)n1 experimental_target="L-lactate dehydrogenase (Plasmodium falciparum (isolate CDC / Honduras)) (UniProt Q27743)" quantity_unit=% value_observed=-2
molecule=O[C@@H](c1ccc2ccccc2c1)[C@@H]1CN(CCc2ccccc2)CC[C@@]1(O)c1ccccc1 experimental_target="L-lactate dehydrogenase (Plasmodium falciparum (isolate CDC / Honduras)) (UniProt Q27743)" quantity_unit=% value_observed=1
molecule=CC1(C)N=C(N)N=C(N)N1OCCCOc1ccccc1N experimental_target="L-lactate dehydrogenase (Plasmodium falciparum (isolate CDC / Honduras)) (UniProt Q27743)" quantity_unit=% value_observed=8
molecule="O=C(NCc1ccccn1)C(c1cc2ccccc2o1)N1CCN(C(c2ccccc2)c2ccccc2)CC1 (stereo not drawn)" experimental_target="L-lactate dehydrogenase (Plasmodium falciparum (isolate CDC / Honduras)) (UniProt Q27743)" quantity_unit=% value_observed=0
molecule=Nc1nc(N)c2c(ccc3c2ccn3CCCCO)n1 experimental_target="L-lactate dehydrogenase (Plasmodium falciparum (isolate CDC / Honduras)) (UniProt Q27743)" quantity_unit=% value_observed=-2
molecule=O=C(Nc1ccc(Br)cc1)c1cc(Br)ccc1NS(=O)(=O)c1ccc(C(F)(F)F)cc1 experimental_target="L-lactate dehydrogenase (Plasmodium falciparum (isolate CDC / Honduras)) (UniProt Q27743)" quantity_unit=% value_observed=2
